- System: FGFR2;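 further: KINOMEscan kinase panel screen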
- experimentalParameters: concentration: 1 μM, replicates: in singlicate; n = 1
Could you mark each record true (1) if its %Inh falls strictly under 1%, and false (0) if it equals or exceeds it?

Here are 3 compounds together with their reported answers.
CC(C)N1CCC(n2cnc(-c3ccc(F)cc3)c2-c2ccnc(N)n2)CC1	false (0)
CCC(CC)(CC)n1cnc2c(N)ncnc21	false (0)
FC(F)(F)c1cc(Nc2nccc(-c3c(-c4ccc(Cl)cc4)nn4ncccc34)n2)ccc1Cl	true (1)

Q) Dear reviewer, please state whether Cc1ccc(C)c(NC(=O)NCCNc2ccnc(Nc3ccc(F)cc3)n2)c1 has %Inh strictly beneath 1%.
A) false (0)

Q) Try this compound too: Cn1cc(-c2ccc3c(c2)CCN3C(=O)Cc2cccc(C(F)(F)F)c2)c2c(N)ncnc21
A) true (1)

Q) Input Cl.c1ccc(Cn2ccc3cc(Nc4ncnc5ccccc45)ccc32)cc1
A) true (1)

Q) Another compound to look at: Cl.Fc1ccccc1COc1ccc(Nc2ncnc3ccc(-c4nnc(C(F)(F)F)o4)cc23)cc1Cl
A) true (1)
